Assay: Microsomal stability, pig (Table 1)
Format: in vitro ADME
Details: liver microsomes; Pig: Göttingen Minipig; read-out: Microsomal Stability t1/2
result_type: half-life

**Query** # query: half-life of entry CCOC(=O)c1ccc(NC2CCCCC2)c(N)c1 [Fer-1, Ferrostatin-1, reference compound]
**Result** 16.2 min

----------
Assay: TH-2-31, TH-4-55-2, TH-4-67 PK Study (IP, IV, PO; plasma and brain)
Assay type: in vivo, C57BL/6 mice
Conditions: both sexes, C57BL/6, mouse, brain, 20 mg/kg; all routes of administration; read-out: concentration in brain 24 hours post administration
result_type: concentration at 24 h

**Query** Reported concentration at 24 h, compound Cc1noc(-c2cnc(NC3CCCC3)c(NC3CCCC3)c2)n1 : ____
**Result** < 200 nM

----------
Test: Microsomal stability, mouse liver microsomes (Table 1)
Format: in vitro ADME, Mouse: CD1
Details: CD1 (mouse), mouse, human, liver microsomes, in either mouse or human liver microsomes; read-out: T1/2
result_type: half-life

**Query** Need half-life, item Cc1noc(-c2ccc(NC34CC5CC(CC(C5)C3)C4)c(NC3CCCCC3)c2)n1
**Result** > 2 h

**Query** Please give the result for CC(C)(C)OC(=O)c1ccc(NC2CCCCC2)c(NC23CC4CC(CC(C4)C2)C3)c1 too.
**Result** > 2 h

----------
Tested on: HT-1080 cells
Assay: Rescue activity of selected Fer-1 analogs, dose-response in HT-1080 cells (cell titer glo)
Type: cell-based
Conditions: Homo sapiens, HT-1080; 0.2 μM RSL3; range 10 μM-0 μM; 48 hours; read-out: IC50 against RSL3
result_type: IC50

**Query** Which value of IC50 has been reported for Cc1noc(-c2cnc(NC3CCCCC3)c(NC3CCCCC3)c2)n1 in the records?
**Result** 10 to 20 nM

----------
Tested on: HT-1080 cells
Assay: Cell viability assays in HT-1080 cells, ferroptosis induced by IKE or RSL3 (Example 8)
Format: cell-based
Settings: Homo sapiens, HT-1080, 48 h, ^b 2 μM IKE, 48 hours, 1,000 cells/well
For each of the compounds below, state its pIC50.
Field pIC50 (float): negative decimal logarithm of the concentration in molar.

**Query** Param readout = pIC50; param system = HT-1080 cells; param query = Cc1noc(-c2cc(NC3CCCCC3)cnc2NC2CCCCC2)n1 ; response: value
**Result** 8.12

**Query** And Cc1noc(-c2cnc(NC3CCCCC3)c(NC3CCCCC3)c2)n1 ?
**Result** 8.25

**Query** Same for Cc1noc(-c2cc(NC(C)C)cnc2NC2CCCCC2)n1
**Result** 8.27

**Query** Now this one: CCOC(=O)c1ccc(NC2CCCCC2)c(N)c1 [Fer-1, Ferrostatin-1, reference compound]
**Result** 8.04

**Query** Try this compound too: COc1cnc(NC2CCCCC2)c(NC2CCCCC2)c1
**Result** 7.77

----------
Assay: PHB4082 IP, IV Study (cyclodextrin/PEG/tween vehicle)
Type: in vivo, C57BL/6 mice
Details: both sexes, C57BL/6, mouse, plasma, 10 mg/kg; IP Administration, 4 hr; read-out: [PHB4082]plasma
result_type: concentration at 4 h
Put your answer as a value accompanied by its unit after it.

**Query** Look up concentration at 4 h for this compound: Cc1noc(-c2ccc(NC3CCCCC3)c(NC3CCCCC3)c2)n1 [PHB4082]
**Result** 306 nM
